Target: human HER2 (23-652) (Homo sapiens)
Sequence (P04626 23-652): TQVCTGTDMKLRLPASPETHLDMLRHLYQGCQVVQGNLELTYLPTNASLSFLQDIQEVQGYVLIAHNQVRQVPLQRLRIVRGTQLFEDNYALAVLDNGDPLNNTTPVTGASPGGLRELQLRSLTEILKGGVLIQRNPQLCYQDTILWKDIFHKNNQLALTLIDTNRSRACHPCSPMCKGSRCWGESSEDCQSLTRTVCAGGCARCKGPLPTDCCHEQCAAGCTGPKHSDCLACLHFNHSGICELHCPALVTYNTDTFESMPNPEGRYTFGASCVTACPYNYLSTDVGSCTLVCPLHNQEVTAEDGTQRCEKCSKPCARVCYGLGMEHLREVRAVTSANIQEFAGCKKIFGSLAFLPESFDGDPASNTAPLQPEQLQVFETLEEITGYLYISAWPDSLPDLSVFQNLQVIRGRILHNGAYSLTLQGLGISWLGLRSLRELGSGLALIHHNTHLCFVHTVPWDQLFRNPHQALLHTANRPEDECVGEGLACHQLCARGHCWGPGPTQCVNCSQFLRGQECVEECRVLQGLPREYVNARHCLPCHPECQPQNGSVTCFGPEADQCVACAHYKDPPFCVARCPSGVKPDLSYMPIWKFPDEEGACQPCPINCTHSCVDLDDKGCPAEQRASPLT
Experiment: Surface plasmon resonance (SPR) for assessment of peptide affinity, human HER2
Type: binding
Parameters: towards human HER2 (23-652) and mouse HER2 (23-653); made in house
Conditions: SPR, human HER2 extracellular domain, 25° C., 1:1 binding model; read-out: huHER2-SPR-ONC KD
Starred links: 1 amine or outer side, 2 acyl side, 3 side chain; linkers in the order of their positions; H or OH if unused. Positions of bridges follow the written chain, without caps; N, C: chain ends. Non-standard residues stand in square brackets, D forms with d. Residues, ends and D or L forms follow the SMILES beside them. Trp(5-OH) = N[C@@H](Cc1c[nH]c2ccc(O)cc12)C(=O)O; NMePhe(4-F) = CN[C@@H](Cc1ccc(F)cc1)C(=O)O; X1 = O=C([C@H](Cc1cnn2ccccc12)N[*:1])[*:2]; NMehPhe = CN[C@@H](CCc1ccccc1)C(=O)O; Gly(cPr) = N[C@H](C(=O)O)C1CC1; NMeDap = CN[C@@H](CN)C(=O)O; NMeS = CN[C@@H](CO)C(=O)O
Consider the following molecules and their measured Kd readings.

molecule: CC[N+]1=C(/C=C/C=C/C=C2/N(CCCCCC(=O)NCCCC[C@H](NC(=O)[C@H](Cc3ccc(F)cc3)N(C)C(=O)[C@@H]3CNC(=O)CCC[C@H](NC(C)=O)C(=O)N[C@@H](Cc4ccc(O)cc4)C(=O)N[C@@H](CO)C(=O)N(C)[C@@H](CCc4ccccc4)C(=O)N(C)[C@@H](CCCCNC(C)=O)C(=O)N[C@@H](Cc4c[nH]c5ccc(O)cc45)C(=O)N[C@@H](Cc4c[nH]c5ccccc45)C(=O)N[C@@H](C4CC4)C(=O)N3C)C(N)=O)c3ccc(S(=O)(=O)O)cc3C2(C)C)C(C)(C)c2cc(S(=O)(=O)[O-])ccc21 [Example D1]
Kd: < 0.1 nM

molecule: CC(=O)N[C@H]1CCCC(=O)NC[C@@H](C(=O)N(C)[C@@H](Cc2ccc(F)cc2)C(=O)N[C@@H](CCCCNC(=O)CN2CCN(CC(=O)O)CCN(CC(=O)O)CCN(CC(=O)O)CC2)C(N)=O)N(C)C(=O)[C@H]([C@H](C)O)NC(=O)[C@H](Cc2c[nH]c3ccccc23)NC(=O)[C@H](Cc2c[nH]c3ccc(O)cc23)NC(=O)[C@H](CCCCNC(=O)CCO)N(C)C(=O)[C@H](CCc2ccccc2)N(C)C(=O)[C@H](CO)NC(=O)[C@H](Cc2ccc(O)cc2)NC1=O [Example B7]
Kd: 0.4 nM

molecule: CC(=O)NCCCC[C@H]1C(=O)N[C@@H](Cc2c[nH]c3ccc(O)cc23)C(=O)N[C@@H](Cc2c[nH]c3ccccc23)C(=O)N[C@@H](C2CC2)C(=O)N(C)[C@H](C(=O)N(C)[C@@H](Cc2ccc(F)cc2)C(=O)N[C@@H](CCCCNC(=O)CN2CCN(CC(=O)O)CCN(CC(=O)O)CCN(CC(=O)O)CC2)C(N)=O)CNC(=O)CCC[C@H](NC(C)=O)C(=O)N[C@@H](Cc2ccc(O)cc2)C(=O)N[C@@H](CO)C(=O)N(C)[C@@H](CCc2ccccc2)C(=O)N1C [Example B1]
Kd: < 0.1 nM

molecule: CC(=O)N[C@H]1CCC(=O)NC[C@@H](C(=O)N(C)[C@@H](Cc2ccc(F)cc2)C(N)=O)N(C)C(=O)[C@H](C2CC2)NC(=O)[C@H](Cc2cnn3ccccc23)NC(=O)[C@H](Cc2c[nH]c3ccc(O)cc23)NC(=O)[C@H](CO)N(C)C(=O)[C@H](CCc2ccccc2)N(C)C(=O)[C@H](CO)NC(=O)[C@H](Cc2ccc(O)cc2)NC1=O [Example A21] (Ac-EYS[NMehPhe][NMeS][Trp(5-OH)][X1][Gly(cPr)][NMeDap][NMePhe(4-F)]-NH2; lactam 1-9)
Kd: > 6000 nM

molecule: CC(=O)NCCCC[C@H]1C(=O)N[C@@H](Cc2c[nH]c3ccc(O)cc23)C(=O)N[C@@H](Cc2c[nH]c3ccccc23)C(=O)N[C@@H](C2CC2)C(=O)N(C)[C@H](C(=O)N(C)[C@@H](Cc2ccc(F)cc2)C(=O)N[C@@H](CCCCNC(=O)CCC(C(=O)O)N2CCN(CC(=O)O)CCN(CC(=O)O)CC2)C(N)=O)CNC(=O)CCC[C@H](NC(C)=O)C(=O)N[C@@H](Cc2ccc(O)cc2)C(=O)N[C@@H](CO)C(=O)N(C)[C@@H](CCc2ccccc2)C(=O)N1C (some centres unmarked) [Example B13]
Kd: < 0.1 nM
